Across several publications, the following IC50 results were reported for UniProt:Q07343.
Sequence (Q07343 whole entry): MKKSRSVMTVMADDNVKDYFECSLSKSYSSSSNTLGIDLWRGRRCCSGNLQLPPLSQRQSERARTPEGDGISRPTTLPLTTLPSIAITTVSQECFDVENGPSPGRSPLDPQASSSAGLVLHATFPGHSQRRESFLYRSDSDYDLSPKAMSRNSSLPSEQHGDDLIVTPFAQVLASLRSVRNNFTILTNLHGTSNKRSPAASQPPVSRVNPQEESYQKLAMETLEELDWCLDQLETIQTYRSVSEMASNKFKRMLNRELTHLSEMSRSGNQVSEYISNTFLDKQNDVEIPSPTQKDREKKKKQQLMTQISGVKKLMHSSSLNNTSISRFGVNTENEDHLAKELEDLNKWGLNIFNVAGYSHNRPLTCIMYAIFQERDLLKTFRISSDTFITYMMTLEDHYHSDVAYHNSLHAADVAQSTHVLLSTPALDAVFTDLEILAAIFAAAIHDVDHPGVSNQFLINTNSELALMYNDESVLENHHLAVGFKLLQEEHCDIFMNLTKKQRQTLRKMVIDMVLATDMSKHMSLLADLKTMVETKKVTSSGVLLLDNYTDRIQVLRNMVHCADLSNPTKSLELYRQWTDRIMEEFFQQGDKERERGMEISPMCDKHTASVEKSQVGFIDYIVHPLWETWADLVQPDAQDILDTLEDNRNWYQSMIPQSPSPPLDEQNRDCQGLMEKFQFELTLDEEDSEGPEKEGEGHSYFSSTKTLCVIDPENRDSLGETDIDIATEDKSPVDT

These solved cases illustrate the format of a correct answer.
# compound, IC50
data = [
    ("COc1ccc(C2=NNC(=O)C[C@@H]2C)c2cc(C(F)(F)F)nn12", "42 nM"),
    ("Cc1ccc(/C(=C/c2cccc(-c3cc(C(C)C)cc4cccnc34)c2)c2ccc(S(C)(=O)=O)cc2)nc1", "0.2 nM"),
    ("COc1ccc(C2=NNC(=O)CC2C)c2nc(C(F)(F)F)oc12 (racemic)", "1520 nM"),
]

Query: Which measured IC50 belongs to CC1(C)Cc2c(c(N3CCOCC3)nc3sc4c(NCCCN5CCCC5=O)ncnc4c23)CO1 , tested on UniProt:Q07343?
Reply: 167 nM

Query: Field: IC50 (UniProt:Q07343). Entry: COc1ccc(C2=Nc3c(C(C)(C)C)nn(CCCO)c3C(=O)NC2)cc1-c1cnc(N(C)C)cc1C
Reply: 5660 nM

Query: Give UniProt:Q07343 IC50 for CC1(C)CCc2c(N3CCOCC3)nc3sc4c(N(CCO)CCN5CCOCC5)ncnc4c3c2C1
Reply: 2.8 nM

Query: Find IC50 (UniProt:Q07343) for the entry Cc1cc(C)n(C(=O)c2ccc(-c3ccccc3)o2)n1
Reply: 70300 nM

Query: Record lookup: for UniProt:Q07343, what IC50 belongs to CO/N=C(\c1ccccn1)C1CCN(C(=O)c2nc(-c3ccc(OC)c4nc(C(F)(F)F)ccc34)oc2CN)CC1 ?
Reply: 1.6 nM
